Measured composite z-score accompanies every entry in the list below.
Assay Protocol: probe aCHRDL2 binding to arrayed compounds – biochemical, biotinylated probe, 635/667 nm fluorescence, primary screen (AID 1100)
Condition Notes: small-molecule microarray, higher = more signal
Response field accepts a number only; no unit should be typed.

>>> number("NCCCCCCNC(=O)[C@@H]1C[C@@H]2C(=O)N3CCC[C@H]3C(=O)N2[C@@H]1c1cccc(OCCO)c1")
0.798
>>> number("COC(=O)C[C@H]1O[C@@]2(C[C@@H]1[Si](C)(C)C)C(=O)N(C)c1ccccc12")
-0.52
>>> number("O=C1C2C=CC(C(O)c3ccc([N+](=O)[O-])cc3)N(Nc3ccccc3F)C2C(=O)N1c1ccccc1 (centres undefined)")
0.941

Now for a further compound.
Please indicate composite z-score recorded for `COC(=O)[C@@]1(Cc2ccc(F)cc2)[C@H]2c3cc(C(=O)N4CCCC4)n(Cc4cc(F)cc5c4OCOC5)c3C[C@H]2CN1C(=O)c1ccccc1`
1.06

###

Measured composite z-score accompanies every entry in the list below.
Target Entity: Fibroblast growth factor 2 (Homo sapiens) (UniProt P09038)
Sequence (P09038 whole entry, looked up): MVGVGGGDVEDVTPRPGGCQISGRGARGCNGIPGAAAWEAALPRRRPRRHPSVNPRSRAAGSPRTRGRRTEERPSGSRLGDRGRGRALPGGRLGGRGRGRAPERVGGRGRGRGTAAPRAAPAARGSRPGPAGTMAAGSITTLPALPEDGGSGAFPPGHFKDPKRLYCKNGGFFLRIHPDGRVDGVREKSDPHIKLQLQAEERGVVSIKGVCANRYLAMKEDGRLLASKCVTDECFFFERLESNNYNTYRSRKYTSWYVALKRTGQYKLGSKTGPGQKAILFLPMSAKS
Assay Protocol: basic fibroblast growth factor binding to printed compounds – biochemical, small-molecule microarray, 635/667 nm fluorescence, primary screen (AID 1133)
Condition Notes: FGF2, fluorescence 635/667, higher = more signal
Response field accepts a number only; no unit should be typed.

Illustrative cases are given below, each with its answer.
>>> number("C=CCC(OC(C)=O)[C@@H]1[C@@H](N(Cc2cc3ccccc3o2)C(=O)c2cccc3ccccc23)c2cc(OCCCO)ccc2N1C(=O)c1ccc2ccccc2n1 (some centres not stated)")
0.285
>>> number("O=C1O[C@@H](c2ccccc2)[C@@H](c2ccccc2)N2[C@@H](c3ccc(OCCO)cc3)[C@]3(C(=O)Nc4ccc(C#CC5(O)CCCCCC5)cc43)[C@@H](C(=O)O)[C@H]12")
0.155
>>> number("[N-]=[N+]=NCc1ccccc1[C@@H]1OC(c2ccc(OCCCO)cc2)=N[C@]1(Cc1ccccc1N=[N+]=[N-])C(=O)NCC(O)CO (some centres not stated)")
1.26
>>> number("C=CCOC(=O)[C@H]1[C@@H]2C(=O)O[C@@H](c3ccccc3)[C@@H](c3ccccc3)N2[C@@H](c2ccc(OCCOC(=O)[C@@H]3C[C@@H]4C(=O)N[C@@H](CCCC[N+](C)(C)C)C(=O)N4[C@@H]3c3ccc(O)cc3)cc2)[C@]12C(=O)Nc1ccc(I)cc12")
1.48
>>> number("C=C(COC)/C(=C/C[C@@H](OC(C)=O)c1ccccc1OCCO)c1cnc2ccccc2c1")
1.12

Please indicate composite z-score recorded for `COC(=O)[C@@]1(Cc2ccc(OC)cc2)[C@H]2c3cc(C(=O)N(C)C)[nH]c3C[C@H]2CN1C(=O)c1ccccc1`
-0.738

Please indicate composite z-score recorded for CC1CC/C=C\[C@H]2OC34C=CCN(c5ccc(Cl)cc5)C(=O)[C@H]3N(CCCCCCO)C(=O)[C@]4(C)C2C(=O)O1 (some centres not stated)
-0.662

Please indicate composite z-score recorded for `Cc1ccc(S[C@]2(C(=O)NC3CC3)CC(=O)N(C(C)C)[C@@H]2c2ccc(CO)cc2I)cc1`
-0.471

Please indicate composite z-score recorded for `O=C1O[C@@H](c2ccccc2)[C@@H](c2ccccc2)N2[C@@H](c3ccc(OCCO)cc3)[C@]3(C(=O)Nc4ccc(C#CC5(O)CCCCCC5)cc43)[C@@H](C(=O)Nc3nc4ccccc4s3)[C@H]12`
1.54

Please indicate composite z-score recorded for `C=C(CCCC)/C(=C/C[C@@H](OC(C)=O)c1ccc(CO)o1)c1cnc2ccccc2c1`
1.54

Please indicate composite z-score recorded for `CC(C)NC(=O)[C@@]1(c2ccc([N+](=O)[O-])cc2)CC(=O)N(CC23CC4CC(CC(C4)C2)C3)[C@@H]1c1ccc(CO)cc1`
1.55

Please indicate composite z-score recorded for `C=CCOC(=O)[C@@H]1[C@H]2C(=O)O[C@H](c3ccccc3)[C@H](c3ccccc3)N2[C@H](c2ccc(OCCOC(=O)[C@H]3C[C@H]4C(=O)NCC(=O)N4[C@H]3c3cccc(OCCO)c3)cc2)[C@@]12C(=O)Nc1ccc(I)cc12`
1.64
